# assay.remarks: Oral bioavailability in rat at 5 mg/kg
# Type: ADME, organism-based
# run.parameters: in vivo
endpoint.label: bioavailability (%)
Numbers only, in %.

The recorded bioavailability for `Cc1cccc2ccc(N3CCC(C(=O)N[C@H]4CCC[C@H]4CCc4ccccc4C(=O)O)CC3)nc12` is 52

###

# assay.remarks: Volume of distribution at steady state in dog at 1 mg/kg, iv
# Assay type: ADME, organism-based, Canis lupus familiaris
# run.parameters: in vivo, read-out: Vdss
endpoint.label: Vd (L/kg)
Answers are plain numbers, in L/kg.

Form field Vd, entry `Cc1cccc2ccc(N3CCC(C(=O)N[C@H]4CCC[C@H]4CCc4ccccc4C(=O)O)CC3)nc12` : 1.2

###

# assay.remarks: Clearance in rat at 1 mg/kg, iv
# Assay type: ADME, organism-based
# run.parameters: in vivo
endpoint.label: clearance (mL/min/kg)
Numbers only, in mL/min/kg.

Here's what some known entries look like.
INSERT INTO results (sample_smiles, endpoint_label, reported) VALUES
  ('O=C(O)c1ccccc1CC[C@@H]1CCC[C@@H]1NC(=O)C1CCN(c2ccc(C(F)(F)F)cc2)CC1', 'clearance', 5),
  ('O=C(O)c1ccc(Cl)cc1OC[C@@H]1CCC[C@@H]1NC(=O)C1CCN(c2ccc(C(F)(F)F)cc2)CC1', 'clearance', 57);

List reported clearance for each of these compounds:
1. O=C(O)c1ccc(Cl)cc1NC[C@@H]1CCC[C@@H]1NC(=O)C1CCN(c2ccccc2)CC1
2. O=C(O)c1cccnc1CC[C@@H]1CCC[C@@H]1NC(=O)C1CCN(c2ccc(C(F)(F)F)cc2)CC1

Key:
1: 81; 2: 38

###

# target.or.test.system: CYP2C9 (Homo sapiens, UniProt P11712)
# Sequence (P11712 whole entry): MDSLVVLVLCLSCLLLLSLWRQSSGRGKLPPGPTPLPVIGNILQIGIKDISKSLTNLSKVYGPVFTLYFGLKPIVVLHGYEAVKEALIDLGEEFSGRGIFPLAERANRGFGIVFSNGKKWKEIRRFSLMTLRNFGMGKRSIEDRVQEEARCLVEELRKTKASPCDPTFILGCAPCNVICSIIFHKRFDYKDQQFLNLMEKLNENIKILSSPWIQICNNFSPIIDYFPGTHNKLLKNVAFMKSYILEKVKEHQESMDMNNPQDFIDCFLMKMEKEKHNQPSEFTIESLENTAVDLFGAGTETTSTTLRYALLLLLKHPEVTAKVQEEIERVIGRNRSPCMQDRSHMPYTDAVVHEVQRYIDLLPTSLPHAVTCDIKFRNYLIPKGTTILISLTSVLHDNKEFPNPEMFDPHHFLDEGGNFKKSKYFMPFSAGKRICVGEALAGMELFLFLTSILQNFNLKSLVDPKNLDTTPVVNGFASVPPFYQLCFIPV
# assay.remarks: Inhibition of CYP2C9 (unknown origin) in microsomes at 10 uM relative to control
# Format: ADME
Decision: inhibition at 10 µM compared against 40%; not below it gives yes (1), below it gives no (0).

Example cases with answers are listed next.
INSERT INTO measurements (sample_smiles, assigned_label) VALUES
  ('O=C(O)c1ccc(Cl)cc1NC[C@@H]1CCC[C@@H]1NC(=O)C1CCN(c2ccccc2)CC1', 'yes (1)'),
  ('O=C(O)c1ccc(Cl)cc1NC[C@@H]1CCC[C@@H]1NC(=O)C1CCN(c2ccc(C(F)(F)F)cc2)CC1', 'yes (1)'),
  ('Cc1ccc(C(=O)O)c(CC[C@@H]2CCC[C@@H]2NC(=O)C2CCN(c3ccc(C(F)(F)F)cc3)CC2)c1', 'yes (1)'),
  ('Cc1cccc2ccc(N3CCC(C(=O)N[C@H]4CCC[C@H]4CCc4ccccc4C(=O)O)CC3)nc12', 'no (0)'),
  ('O=C(O)c1ccc(Cl)cc1CC[C@@H]1CCC[C@@H]1NC(=O)C1CCN(c2ccc(C(F)(F)F)cc2)CC1', 'yes (1)');

Exercise: Would you say `O=C(O)c1ccccc1CC[C@@H]1CCC[C@@H]1NC(=O)C1CCN(c2ccc(OC(F)(F)F)cc2)CC1` shows inhibition at 10 µM at minimum 40%?
Key: no (0)

Exercise: Please check the record `O=C(O)c1ccccc1CC[C@@H]1CCC[C@@H]1NC(=O)C1CCN(c2ccc(C(F)(F)F)cc2)CC1` and state if its inhibition at 10 µM is at or above 40%.
Key: no (0)

Exercise: Reported inhibition at 10 µM at or above 40%? `O=C(O)c1ccccc1CC[C@@H]1CCC[C@@H]1NC(=O)C1CCN(c2ccc(C(F)(F)F)cn2)CC1`
Key: no (0)

###

# target.or.test.system: Prostaglandin E synthase (Homo sapiens) (UniProt O14684)
# assay.remarks: Inhibition of mPGES1 in human whole blood assessed as reduction in LPS-induced PGE2 production preincubated for 30 mins followed by LPS addition measured after 20 to 24 hrs by LC-MS analysis
endpoint.label: IC80 (nM)
Give bare numbers, in nM.

Sample records with IC80:
INSERT INTO assay_data (sample_smiles, endpoint_label, reported) VALUES
  ('O=C(O)c1ccc(Cl)cc1NC[C@@H]1CCC[C@@H]1NC(=O)C1CCN(c2ccc(C(F)(F)F)cc2)CC1', 'IC80', 8),
  ('Cc1cccc2ccc(N3CCC(C(=O)N[C@H]4CCC[C@H]4CCc4ccccc4C(=O)O)CC3)nc12', 'IC80', 24),
  ('O=C(O)c1ccc(F)cc1CC[C@@H]1CCC[C@@H]1NC(=O)C1CCN(c2ccc(C(F)(F)F)cc2)CC1', 'IC80', 41),
  ('O=C(O)c1cccnc1CC[C@@H]1CCC[C@@H]1NC(=O)C1CCN(c2ccc(C(F)(F)F)cc2)CC1', 'IC80', 146),
  ('O=C(O)c1ccccc1CC[C@@H]1CCC[C@@H]1NC(=O)C1CCN(c2ccc(C(F)(F)F)cn2)CC1', 'IC80', 267);

Please report IC80 for every entry that follows.
1. O=C(O)c1ccc(Cl)cc1CC[C@@H]1CCC[C@@H]1NC(=O)C1CCN(c2ccc(C(F)(F)F)cc2)CC1
2. O=C(O)c1ccc(Cl)cc1NC[C@@H]1CCC[C@@H]1NC(=O)C1CCN(c2ccccc2)CC1

Key:
5
1370

###

# target.or.test.system: Prostaglandin E synthase (Homo sapiens)
# assay.remarks: Inhibition of human mPGES1 expressed in HEK293 microsomes assessed as reduction in PGE2 production using PGH2 as substrate after 2.5 mins by LC-MS analysis
Provide the reported pIC50 of each item.
Numbers only, as −log10 of the molar value.

Please review the following examples before continuing.
INSERT INTO measurements (sample_smiles, target_or_test_system, reported) VALUES
  ('O=C(O)c1ccc(Cl)cc1CC[C@@H]1CCC[C@@H]1NC(=O)C1CCN(c2ccc(C(F)(F)F)cc2)CC1', 'Prostaglandin E synthase (Homo sapiens)', 9.00),
  ('O=C(O)c1cccnc1CC[C@@H]1CCC[C@@H]1NC(=O)C1CCN(c2ccc(C(F)(F)F)cc2)CC1', 'Prostaglandin E synthase (Homo sapiens)', 8.22),
  ('O=C(O)c1ccccc1CC[C@@H]1CCC[C@@H]1NC(=O)C1CCN(c2ccc(C(F)(F)F)cc2)CC1', 'Prostaglandin E synthase (Homo sapiens)', 8.70);

List reported pIC50 for each of these compounds:
1. O=C(O)c1ccccc1CC[C@@H]1CCC[C@@H]1NC(=O)C1CCN(c2ccc(C(F)(F)F)cn2)CC1
2. Cc1ccc(C(=O)O)c(CC[C@@H]2CCC[C@@H]2NC(=O)C2CCN(c3ccc(C(F)(F)F)cc3)CC2)c1
3. O=C(O)c1ccccc1CC[C@@H]1CCC[C@@H]1NC(=O)C1CCN(c2ccc(OC(F)(F)F)cc2)CC1

Key:
1: 8.70; 2: 9.00; 3: 9.00

The following compounds each have a reported value; give each one's pIC50.
1. O=C(O)c1ccc(Cl)cc1NC[C@@H]1CCC[C@@H]1NC(=O)C1CCN(c2ccc(C(F)(F)F)cc2)CC1
2. O=C(O)c1ccc(Cl)cc1NC[C@@H]1CCC[C@@H]1NC(=O)C1CCN(c2ccccc2)CC1

Key:
1: 8.40; 2: 8.70

###

For each entry below, report its pIC50 value.
# target.or.test.system: Prostaglandin E synthase (Homo sapiens, UniProt O14684)
# Sequence (O14684 whole entry): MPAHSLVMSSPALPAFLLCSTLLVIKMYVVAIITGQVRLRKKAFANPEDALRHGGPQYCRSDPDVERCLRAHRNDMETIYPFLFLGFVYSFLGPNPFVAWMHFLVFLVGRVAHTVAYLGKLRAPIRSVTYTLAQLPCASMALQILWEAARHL
# assay.remarks: Inhibition of mPGES1 in human A549 cells assessed as reduction in IL-1beta-induced PGE2 production preincubated for 30 mins followed by IL-1beta addition measured after 18 hrs by enzyme immunoassay
# Assay type: cell-based
Answers are plain numbers, as −log10 of the molar value.

INSERT INTO results (sample_smiles, target_or_test_system, reported) VALUES
  ('O=C(O)c1ccc(Cl)cc1NC[C@@H]1CCC[C@@H]1NC(=O)C1CCN(c2ccccc2)CC1', 'Prostaglandin E synthase (Homo sapiens, UniProt O14684)', 7.68);

With those in mind, consider the next molecule.
Given item `O=C(O)c1ccc(Cl)cc1NC[C@@H]1CCC[C@@H]1NC(=O)C1CCN(c2ccc(C(F)(F)F)cc2)CC1` , the value recorded as its pIC50 is 8.46

###

# assay.remarks: Clearance in dog at 1 mg/kg, iv
# Format: ADME, organism-based, Canis lupus familiaris
# run.parameters: in vivo
endpoint.label: clearance (mL/min/kg)
Numbers only, in mL/min/kg.

Lab note: `Cc1cccc2ccc(N3CCC(C(=O)N[C@H]4CCC[C@H]4CCc4ccccc4C(=O)O)CC3)nc12` gave clearance of 6.5

###

# target.or.test.system: Prostaglandin E synthase (Homo sapiens, UniProt O14684)
# assay.remarks: Inhibition of mPGES1 in human whole blood assessed as reduction in LPS-induced PGE2 production preincubated for 30 mins followed by LPS addition measured after 20 to 24 hrs by LC-MS analysis
Dear colleague, classification is by IC50, with ranges listed here: lo (below 5 nM), mid (5 nM to below 20 nM), hi (20 nM or more)

INSERT INTO measurements (sample_smiles, target_or_test_system, assigned_label) VALUES
  ('Cc1cccc2ccc(N3CCC(C(=O)N[C@H]4CCC[C@H]4CCc4ccccc4C(=O)O)CC3)nc12', 'Prostaglandin E synthase (Homo sapiens, UniProt O14684)', 'mid');

Exercise: Which category does the recorded IC50 put `O=C(O)c1ccccc1CC[C@@H]1CCC[C@@H]1NC(=O)C1CCN(c2ccc(C(F)(F)F)cn2)CC1` in?
Key: hi

Exercise: Where would `O=C(O)c1ccc(Cl)cc1NC[C@@H]1CCC[C@@H]1NC(=O)C1CCN(c2ccccc2)CC1` land among the classes by reported IC50?
Key: hi

Exercise: Please indicate the class for `O=C(O)c1ccc(Cl)cc1OC[C@@H]1CCC[C@@H]1NC(=O)C1CCN(c2ccc(C(F)(F)F)cc2)CC1` based on its IC50.
Key: mid

Exercise: Which bin, given its IC50, does `O=C(O)c1ccc(Cl)cc1CC[C@@H]1CCC[C@@H]1NC(=O)C1CCN(c2ccc(C(F)(F)F)cc2)CC1` occupy?
Key: lo

Exercise: Class for `O=C(O)c1ccccc1CC[C@@H]1CCC[C@@H]1NC(=O)C1CCN(c2ccc(OC(F)(F)F)cc2)CC1` ?
Key: mid
